Biological target: ScRvs167
Experiment: SPOT peptide array binding signal intensity (averaged, normalized) (arbitrary units (background-subtracted, floor 0; scale differs between SH3 domains)); higher = stronger binding of the SH3 domain to the peptide
REPORTED_METRIC: SPOT peptide array binding signal intensity
Answer as a number with no unit attached.

# BINDER, DATA_VALUE
data = [
    ("QRKSLRRPTLSKPAV", 25),
    ("LYEAMPPTLPHRDWK", 374),
    ("AAAPKHAPPPVPNET", 0.167),
    ("NMLKKKPLKKPLKRF", 7),
]

Shifting focus to the binder that follows.
Record request: SPOT peptide array binding signal intensity value, item RLSRLLLSLPPESFT
20.3
